Entry source: PubChem BioAssay AID485364

- TARGET_DESC: Schistosoma mansoni thioredoxin glutathione reductase (TGR) (UniProt Q962Y6)
- ASSAY_PROTOCOL: qHTS Assay for the Inhibitors of Schistosoma Mansoni Peroxiredoxins; note: nearly all actives have a fitted effect of over 60% in size
- CONDITION_PARAMETERS: purified TGR, DTNB reduction, TNB absorbance 405 nm; series mostly up to 114 µM
The whole screen tested about 360,000 compounds, of which about 11,000 (3.1%) were called active. Roughly 4% stayed inconclusive and do not appear here. Calls come from the whole dose curve; as a rule, active = well fitted inhibition curve with a large enough effect; inconclusive = small, poorly fitted or top-dose-only effect; inactive = no such curve, though single readings can be large or run the other way. The entries come from a sample that favours actives as a whole.
Result category, one only: active, inactive

Check out these entries, answers already filled in.
- CCN(CC)C(=O)CSc1nc2ccsc2c(=O)n1Cc1ccccc1Cl: inactive
- COc1ccc(C(=O)NCC(=O)N/N=C/c2ccc([N+](=O)[O-])o2)cc1OC: active
- Cc1ccc(N2CC(NC(=O)Cc3cccs3)CC2=O)cc1 (stereo unspecified): inactive
- CCOc1ccc(NC(=O)c2cc(S(=O)(=O)N3CCCC3)c[nH]2)cc1: inactive

Recorded call for C=CCN(N=Nc1cccc([N+](=O)[O-])c1)c1cccc([N+](=O)[O-])c1 ? active

Recorded call for CCOC(=O)c1cc2c(=O)n3ccccc3nc2n(CC2CCCO2)c1=NC(=O)c1ccccc1F (stereo unspecified) ? inactive

Recorded call for Cc1nc(-c2ccccc2)sc1C(=O)/C=C/N(C)C ? inactive

Recorded call for C=CCNC(=O)/C(=C\c1cccc([N+](=O)[O-])c1)NC(=O)c1ccccc1 ? inactive

Recorded call for O=C(NC1CCN(Cc2ccccc2)CC1)c1ccc(Cn2c(=O)c3ccccc3n(Cc3cccc(F)c3)c2=O)cc1 ? inactive

Recorded call for COC(=O)c1c(C)[nH]c(C(=O)/C=C/c2ccc(Cl)cc2)c1C ? inactive

Recorded call for CC(=O)Nc1cccc(NC(=O)CSc2cn(CC(=O)N3CCCC3)c3ccccc23)c1 ? inactive

Recorded call for COc1cccc2c1cc1c(=O)n(CC(=O)N3CCN(c4ccccc4)CC3)nc(C)n12 ? inactive

Recorded call for O=C(NCCCO)c1nn(-c2ccc(Cl)cc2)nc1CO ? inactive

Recorded call for O=C(Nc1nonc1-c1ccc(Cl)cc1)c1ccco1 ? inactive
